Data origin: ChEMBL document CHEMBL1201862

system: RXF 393; assay: NCI tumour cell line growth inhibition, 48 h
Calls of active or inactive are those of the source. No stated cut-off is given here; in the data, active = GI50 up to about 1.1 µM and inactive = higher. Peptide text beside a SMILES is read from it.
Classes used: True (active), False (inactive)

CC1(c2ccc(Cl)cc2)CC(c2ccc(Cl)cc2)=C(C#N)C(=C(C#N)C#N)N1 (centres undefined) : False
CC(C)CC(NC(=O)C(CC(C)C)NC(=O)C(Cc1c[nH]cn1)NC(=O)C(C)NC(=O)C(NC(=O)C(C)NC(=O)C(Cc1c[nH]c2ccccc12)NC(=O)C(CCC(=O)O)NC(=O)C(N)Cc1ccccc1)C(C)C)C(N)=O (centres undefined) (H-FEWAVAHLL-NH2; configuration not given here) : False
CN(Cc1cnc2nc(N)nc(N)c2n1)c1ccc(C(=O)NC23CC4CC(CC(C4)C2)C3)cc1 : False
CCCCc1c2c(nc3c1CC/C(=C\c1ccc([N+](=O)[O-])cc1)C3=O)CCCC2 : False
COc1c(C)cc2c(c1O)C1NC(C2)[C@H](O)N2C3COC(=O)[C@@]4(CS[C@@H](c5c(OC(C)=O)c(C)c6c(c53)OCO6)C12)NCCC1=C4NC2C=CC=CC12 (some centres undefined) : True
O=Cc1cn(S(=O)(=O)c2ccccc2)c2ccccc12 : False
O=C(/C=C/c1ccccc1Br)c1ccccc1 : False
C=CCn1c(=O)c(C(=O)Nc2nc(C34CC5CC(CC(C5)C3)C4)cs2)c(O)c2ccccc21 : False
C/C(=N\NC(=S)NCCCNC(=S)N/N=C(\C)c1ccccn1)c1ccccn1 : False
COc1cc2ccc(/C(C)=N/OC(C)=O)cc2cc1OC : False
COc1c(/C=C/C(C)(C)O)cc(C2CC(=O)c3c(O)cc(O)cc3O2)cc1CC=C(C)C (centres undefined) : False
O=C1/C(=C/c2ccc(Cl)cc2)CSc2ccccc21 : False
Cc1ccccc1C(=O)Oc1ccc(OCc2ccccc2)cc1 : False
CN(CCCNC(=O)c1cc(-c2ccccc2)nc2ccccc12)CCCNC(=O)c1cc(-c2ccccc2)nc2ccccc12 : False
CC(NC1=NCCO1)c1cccs1 (centres undefined) : False
COc1ccc(N2C(=O)c3cccnc3S2(=O)=O)cc1 : False
COC(=O)C1=C(C)NC(C)=C(C(=O)OC)C1c1nc2sccn2c1[N+](=O)[O-] : False
COc1cc2nc(-c3ccccc3)cc(O)c2cc1OC : False
CCOP1(=O)OCC2OC(n3cnc4c(N)ncnc43)C(O)C2O1.c1ccccc1 (centres undefined) : False

* * *

Measured GI50, listed per entry for reference.
system: MCF7; experiment: NCI tumour cell line growth inhibition, 48 h
Active and inactive are the calls of the source. Rule as the data show it: active = GI50 up to about 1.1 µM and inactive = higher.
ASSAY_METRIC: GI50

COc1ccc(/C=C2\CCC(CN3CCOCC3)C2=O)cc1 (stereo not given) : 2.38 µM (inactive)
COC(=O)[C@H]1NC(=O)CCSSC1(C)C : > 100 µM (inactive)
O=C(C(=O)c1cc(-c2ccccc2)nc2ccc3ccccc3c12)c1ccccc1 : 28.1 µM (inactive)
CCOC(=O)C(NC(=O)CC)(Nc1ccc(S(=O)(=O)Nc2ncccn2)cc1)C(F)(F)F (stereo not given) : > 100 µM (inactive)
COC(=O)[C@H](C)[C@@H]1CC[C@](C)(CCC2=C(C)CCCC2(C)C)OO1 : > 25 µM (inactive)

* * *

system: MDA-N; experiment: NCI tumour cell line growth inhibition, 48 h
Activity calls are given as the source filed them. No stated cut-off is given here; in the data, active = GI50 up to about 1.1 µM and inactive = higher.
Below, each entry is listed alongside its reported GI50.
ASSAY_METRIC: GI50

O=C1Oc2ccccc2C(=O)/C1=C/N1C(=O)N/C(=C\c2ccccc2O)C1=O : 60.7 µM (inactive)
CCCCC(=O)OC[n+]1cccc(-c2c(COC(=O)NC(C)C)c(COC(=O)NC(C)C)c3n2CCC3)c1 : 99.1 µM (inactive)
O=c1c2c3c(sc2nc2n1N=C(c1ccc(Cl)cc1)CS2)CCCC3 : > 100 µM (inactive)
Cc1cc(C)c2nc3c(c(C(O)C4CCCCN4)c2c1)CC/C3=C\c1ccc(Cl)cc1 (stereo unspecified) : 50.4 µM (inactive)
COc1ccc(N2C(=O)c3cccnc3S2(=O)=O)cc1 : > 100 µM (inactive)
COc1cc(/C=C2\N=C(c3ccccc3)N(c3nc4c(OC)ccc(OC)c4s3)C2=O)cc(OC)c1OC : 35.8 µM (inactive)
CC1(C)CC(=O)C2=C(C1)NC1=C(C2)C(=O)CC(C)(C)C1 : > 100 µM (inactive)
C=C(CN(C)C)C(=O)c1ccc(OC2OC(COC(C)=O)C(OC(C)=O)C(OC(C)=O)C2OC(C)=O)cc1 (stereo unspecified) : 3.03 µM (inactive)
CC(C)C(/N=C/c1ccccc1O)C(=O)O (stereo unspecified) : > 100 µM (inactive)
COc1cc(C2SC(=N)Nc3c2c(C)nn3C(=O)Cc2ccccc2)ccc1O (stereo unspecified) : > 100 µM (inactive)
Cc1nnc2n(c1=O)CCN2C : > 100 µM (inactive)

* * *

tested on: HCT-116; assay: NCI tumour cell line growth inhibition, 48 h
Active and inactive are the calls of the source. Cut-off read from the data, not from the text of the source: active = GI50 up to about 1.1 µM and inactive = higher.
Items are presented alongside their recorded GI50.
ASSAY_METRIC: GI50

C/C(CC(=O)N(C(C)C)C(C)C)=N\NC(=O)c1ccncc1 : > 100 µM (inactive)
O=C1Nc2ccc(Br)cc2/C1=N/N1C(=O)C(=O)N(C2CCCCC2)C1=S : 2.72 µM (inactive)
COc1ccc2c3c(c(C(=O)c4ccccc4)oc13)CCC2 : > 100 µM (inactive)
O=[N+]([O-])c1cn[n+]([O-])c2ccccc12 : 1.24 µM (inactive)

* * *

test system: CAKI-1; assay: NCI tumour cell line growth inhibition, 48 h
Activity calls are given as the source filed them. No stated cut-off is given here; in the data, active = GI50 up to about 1.1 µM and inactive = higher.
Labels: active, inactive

FC(F)(F)c1cccc(COCCN2CCN(Cc3cccc(C(F)(F)F)c3)CC2)c1 : inactive
Cc1ccc(NC2=CC(=O)C(NO)c3ccccc32)cc1 (stereo not given) : inactive
O=c1c(Cl)c(Cl)c(=O)c2sc3cc(Cl)ccc3[nH]c1=2 : inactive
CCOc1ccc(/N=N/C2C(=O)N(C(=O)CC(=O)Nc3ccc(C)cc3)N=C2C)cc1 (stereo not given) : inactive
Cc1cc(NC(=O)NC(=O)c2ccccc2N)ccc1Oc1ncc(Br)cn1 : active
COC(=O)[C@@]12CN(C)[C@@H](C(C)(C)C)N1C(=O)OC2c1ccccc1 (stereo not given in full) : inactive
CCOC(=O)c1ccc(N[C@@H]2c3cc4c(cc3C(C3=CC(=O)C(=O)C(OC)=C3)[C@H]3C(=O)OCC32)OCO4)cc1 (stereo not given in full) : active
CC1=C(C#N)C2C(=C(C)N1)C(N)=Nc1ccccc12 (stereo not given) : inactive
CCOP1(=O)OCC2OC(n3cnc4c(N)ncnc43)C(O)C2O1.c1ccccc1 (stereo not given) : inactive
Cc1c(C(=O)O)n2c(S)nnc2c2ccccc12 : inactive

* * *

tested on: OVCAR-8; assay: NCI tumour cell line growth inhibition, 48 h
Active and inactive are the calls of the source. Rule as the data show it: active = GI50 up to about 1.1 µM and inactive = higher.
ASSAY_METRIC: GI50

Cc1cccc(Cl)c1NC(=O)/C=C/c1ccccc1 : 26.1 µM (inactive)
C=CCC1C(=O)C(C(=O)OC)N2CCc3c([nH]c4ccccc34)C12 (centres undefined) : > 100 µM (inactive)
O=c1[nH][nH]c(=S)c(=O)[nH]1 : > 100 µM (inactive)
O=Cc1cn(S(=O)(=O)c2ccccc2)c2ccccc12 : 33.5 µM (inactive)
CCOC(=O)/C(C(=S)NC)=C(/N)N1CCCC1 : > 100 µM (inactive)
CC1=C2CC[C@@]3(C)C(=CCC3O)C2(C)CCC1=O (some centres undefined) : > 100 µM (inactive)
CC(=O)O[C@@H]1CN(S(=O)(=O)c2ccc(C)cc2)C[C@@H]1C1CCCCC1 : 24.8 µM (inactive)
CC1(C)OC(=O)N(c2ccccc2)C12C=Cc1cc([N+](=O)[O-])ccc1O2 (centres undefined) : 51.6 µM (inactive)
O=C1Oc2ccccc2C(=O)/C1=C/N1C(=O)N/C(=C\c2ccccc2O)C1=O : 58.1 µM (inactive)

* * *

tested on: HT-29; assay: NCI tumour cell line growth inhibition, 48 h
Calls of active or inactive are those of the source. Rule as the data show it: active = GI50 up to about 1.1 µM and inactive = higher.
Labels: active, inactive

O=C(/C=C/c1c(O)ccc2ccccc12)c1ccc([N+](=O)[O-])cc1 : inactive
O=C(/C=C/c1ccccc1Br)c1ccccc1 : inactive
CC(C)(C)OC(=O)NC1CCC(C(C)(C)C)CC1 (stereo not drawn) : inactive
N/C(=N\c1ccc(Cl)cc1)NS(=O)(=O)c1cc(Cl)c(Oc2ccc([N+](=O)[O-])cc2Cl)c(Cl)c1 : inactive
COc1cc(C2SC(=N)Nc3c2c(C)nn3C(=O)Cc2ccccc2)ccc1O (stereo not drawn) : inactive
O=C(O)c1nc2ccccc2nc1Nc1ccc(F)cc1 : inactive
C/C(CC(=O)N(C(C)C)C(C)C)=N\NC(=O)c1ccncc1 : inactive
NC(CSC1(c2ccc(Cl)cc2)c2ccccc2-c2ccccc21)C(=O)O (stereo not drawn) : inactive
N#Cc1c(N)n(-c2cccc(C(=O)O)c2)c(=O)c2cc([N+](=O)[O-])ccc12 : inactive
CC(C)(C)OC(=O)NC(Cc1c[nH]cn1)C(=O)N1CCCC1C(N)=O (stereo not drawn) : inactive
CC(C)(C)OC(=O)NC1CCC[C@H]1O (stereo partly drawn) : inactive
CCOc1ccc(/N=N/C2C(=O)N(C(=O)CC(=O)Nc3ccc(C)cc3)N=C2C)cc1 (stereo not drawn) : inactive
C(=N\c1ccc(-c2nc3ccccc3s2)cc1)/c1ccc[nH]1 : inactive
COc1cc(O)c2c(=O)c3c(C)cccc3n(C)c2c1 : inactive
CC(C)c1c(O[Si](C(C)C)(C(C)C)C(C)C)cc2c(c1O)CC[C@H]1C(C)(C)CCC[C@]21C : inactive
c1ccc(/N=C(/Nc2ccccc2)N2CCCC2)cc1 : inactive
CC(=O)OCCC[C@@H]1C(=C(C)C)CCC2[C@@]1(C)CC[C@@]1(C)C[C@](C)(CCC=C(C)C)CC[C@]21C (stereo partly drawn) : inactive
CN(Cc1cc(Cl)cc(Cl)c1)CC(C(=O)c1ccccc1)c1ccccc1 (stereo not drawn) : active
